Kindly supply the reported solubility values for the records listed here.
# Test method notes: Solubility in water and olive oil (Method III)
# Condition details: olive oil, organic solvent or mixture
Structures can show the parent of a compound that is named as a salt.

Answered examples (3):
- Compound: "CCCCCCCCCCCCCCCCCCP(=O)(OC1=C(O)C([C@@H](O)CO)OC1=O)OC1=C(O)C([C@@H](O)CO)OC1=O (stereo partly shown) [Example 37]"
  solubility: "> 1000 µg/mL"
- Compound: "O=C(O)CCCC[C@@H](S)CCS (racemic) [Dihydrolipoic acid, Na salt, Dihydrolipoic acid, reference compound]"
  solubility: "< 100 µg/mL"
- Compound: "CC(C)(C)OC(=O)CCCCC(CCSCc1cc(C(C)(C)C)c(O)c(C(C)(C)C)c1)SCc1cc(C(C)(C)C)c(O)c(C(C)(C)C)c1 (stereo not shown) [Example 20]"
  solubility: "> 50000 µg/mL"

Now for a further compound.
In: Provide solubility value for the following compound: CCCCCCCCCCCCCCCCCCNC(=O)C1(C)CCc2c(C)c(O)c(C)c(C)c2O1 (stereo not shown) [Example 6]
Out: > 10000 µg/mL
